Taken from the NIST ThermoML archive (doi:10.1016/j.fluid.2014.06.021).

Record form. Attribute: activity coefficient. Fill in for each entry.
# Method: activity coefficient (dimensionless); of the first substance listed, at infinite dilution; xn = mol fraction of the nth substance listed
# Assay Context: 343.15 K; 101.33 kPa; Liquid; Chromatography; x1 = 0

Solved entries (count: 8):
- Compound: "Cc1cccc(C)c1 [1,3-dimethylbenzene] + C[n+]1ccn(CCCCS(=O)(=O)O)c1.O=S(=O)([O-])C(F)(F)F"
  activity coefficient: 9.84
- Compound: "Cc1ccccc1 [toluene] + C[n+]1ccn(CCCCS(=O)(=O)O)c1.O=S(=O)([O-])C(F)(F)F"
  activity coefficient: 5.54
- Compound: "ClCCl [dichloromethane] + C[n+]1ccn(CCCCS(=O)(=O)O)c1.O=S(=O)([O-])O"
  activity coefficient: 3.37
- Compound: "ClC(Cl)Cl [trichloromethane] + C[n+]1ccn(CCCCS(=O)(=O)O)c1.O=S(=O)([O-])O"
  activity coefficient: 6.84
- Compound: "CCCC(C)=O [pentan-2-one] + C[n+]1ccn(CCCCS(=O)(=O)O)c1.O=S(=O)([O-])C(F)(F)F"
  activity coefficient: 2.19
- Compound: "CCC(=O)CC [pentan-3-one] + C[n+]1ccn(CCCCS(=O)(=O)O)c1.O=S(=O)([O-])O"
  activity coefficient: 13.2
- Compound: "CCC[N+](=O)[O-] [1-nitropropane] + C[n+]1ccn(CCCCS(=O)(=O)O)c1.O=S(=O)([O-])O"
  activity coefficient: 6.82
- Compound: "c1ccsc1 [thiophene] + C[n+]1ccn(CCCCS(=O)(=O)O)c1.O=S(=O)([O-])C(F)(F)F"
  activity coefficient: 2.22

Below are 2 compounds. Give each one its activity coefficient.
1. C[N+](=O)[O-] [nitromethane] + C[n+]1ccn(CCCCS(=O)(=O)O)c1.O=S(=O)([O-])O
2. Cc1ccccc1C [1,2-dimethylbenzene] + C[n+]1ccn(CCCCS(=O)(=O)O)c1.O=S(=O)([O-])C(F)(F)F

OUT:
[1.6, 7.97]
